TARGET_UNDER_TEST: HLA-B*15:03
METHOD_SUMMARY: IEDB peptide-MHC binding, purified MHC/competitive/radioactivity; filed as Kd, often an IC50 or EC50 that approximates it; bounds were set here for any values at or beyond the usual limits of such assays
RUN_PARAMETERS: source organism: Vaccinia virus WR
# Kd values compiled below

ITEM_SEQUENCE | MODIFIER | Kd [nM]
FLSEPYSYF | = | 29.3
LATFTVNIF | = | 35.1
KKYNNDKSF | = | 0.0778
FMAYTTSHI | = | 7.58
AILSLNLRI | = | 237
KVKDLFNTK | ≥ | 22100
SKFVYVSVM | = | 1.63

----------
TARGET_UNDER_TEST: HLA-A*26:01
METHOD_SUMMARY: IEDB peptide-MHC binding, purified MHC/direct/fluorescence; filed as Kd, often an IC50 or EC50 that approximates it; bounds were set here for any values at or beyond the usual limits of such assays
RUN_PARAMETERS: source organism: Vibrio cholerae RC385
pKd: −log10 of the molar value.
OBSERVED_PROPERTY: pKd

ITEM_SEQUENCE | READOUT_VALUE
GLRWHVRAF | ≤ 4.70

----------
TARGET_UNDER_TEST: HLA-A*31:01
METHOD_SUMMARY: IEDB peptide-MHC binding, purified MHC/competitive/fluorescence; filed as Kd, often an IC50 or EC50 that approximates it; bounds were set here for any values at or beyond the usual limits of such assays
RUN_PARAMETERS: source organism: dengue virus type 1
pKd: −log10 of the molar value.

ITEM_SEQUENCE | pKd
SSADLSLEK | ≤ 4.70

----------
TARGET_UNDER_TEST: HLA-C*03:03
METHOD_SUMMARY: IEDB peptide-MHC binding, purified MHC/direct/fluorescence; filed as Kd, often an IC50 or EC50 that approximates it; bounds were set here for any values at or beyond the usual limits of such assays
RUN_PARAMETERS: source organism: Mycobacterium tuberculosis variant bovis BCG str. Pasteur 1173P2
pKd: −log10 of the molar value.

ITEM_SEQUENCE | pKd
YVIEPAAGL | ≥ 9.00

----------
TARGET_UNDER_TEST: HLA-A*30:01
METHOD_SUMMARY: IEDB peptide-MHC binding, purified MHC/direct/fluorescence; filed as Kd, often an IC50 or EC50 that approximates it; bounds were set here for any values at or beyond the usual limits of such assays
RUN_PARAMETERS: source organism: Francisella tularensis subsp. tularensis FSC033

ITEM_SEQUENCE | Kd
NTIEELSGY | ≥ 20 µM

----------
TARGET_UNDER_TEST: HLA-B*51:01
METHOD_SUMMARY: IEDB peptide-MHC binding, purified MHC/direct/fluorescence; filed as Kd, often an IC50 or EC50 that approximates it; bounds were set here for any values at or beyond the usual limits of such assays
RUN_PARAMETERS: source organism: Burkholderia mallei
pKd: −log10 of the molar value.

ITEM_SEQUENCE | TARGET_UNDER_TEST | pKd
KLAQVRRAM | HLA-B*51:01 | ≤ 4.70

----------
TARGET_UNDER_TEST: HLA-B*18:01
METHOD_SUMMARY: IEDB peptide-MHC binding, purified MHC/competitive/fluorescence; filed as Kd, often an IC50 or EC50 that approximates it; bounds were set here for any values at or beyond the usual limits of such assays
RUN_PARAMETERS: source organism: Influenza A virus (A/red knot/Delaware/2561/1987(H10N5))
pKd: −log10 of the molar value.
OBSERVED_PROPERTY: pKd

ITEM_SEQUENCE | READOUT_VALUE
VMTDGPANK | ≤ 4.70
